# tgt: T1, BSA-conjugated Aβ heptapeptide VFFAEDC (C-terminal Cys coupled to NSMP-activated BSA)
# T1 construct: also called Peptide 18-23
# T1 peptide: VFFAEDC
# experimental.protocol: ELISA;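 note: ELISA binding of human antibody (10 or 2 µg/ml) to plate-coated BSA–peptide conjugates, detected with HRP anti-human Ig and TMB colour, mock-treated BSA as negative control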
recorded.metric: OD ratio 18-23/BSA
Just the number, please.

Looking for the measured OD ratio 18-23/BSA of MS-R IgG1 3.6.H5 × 3.6.L2 (antibody, V domains shown, full-length human IgG1; VH entry starts at QLVESGG) VH: ELVESGGGLVQPGGSLRLSCAASGFTFSSYAMSWVRQAPGKGLEWVSAISESGKTKYYADSVKGRFTISRDNSKNTLYLQMNSLRAEDTAVYYCARLTHYARYYRYFDVWGQGTLVTVSS VL: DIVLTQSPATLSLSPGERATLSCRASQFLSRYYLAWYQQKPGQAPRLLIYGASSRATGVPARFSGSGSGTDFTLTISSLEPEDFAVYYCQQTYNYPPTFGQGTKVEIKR , can you help?
9
